These entries and their values trace back to patent US20260355225A1.

test: Cytotoxicity of D-xylose alone or + insulin, MTT assay, absence of viral infection (Example 2); conditions: human, hela tzmbl cells, Viability percentage, AZT 5.000 μM
reported_metric: viability at 48 h, 5 µM (%)
One number for each entry, in %.

Notebook: Cc1cn([C@H]2C[C@H](N=[N+]=[N-])[C@@H](CO)O2)c(=O)[nH]c1=O [AZT, 3-azido-3-deoxythymidine, reference compound] , viability at 48 h, 5 µM read as 96.9

---

assay: Cytotoxicity of D-xylose, MTT assay, absence of viral infection (Example 1); type: cell-based; details: monkey, vero cells, remdesivir at the time of infection; 0.31 μm; read-out: Viability percentage
reported_metric: viability at 0.31 µM (%)
Answers are plain numbers, in %.

Notebook: CCC(CC)COC(=O)[C@H](C)N[P@](=O)(OC[C@H]1O[C@@](C#N)(c2ccc3c(N)ncnn23)[C@H](O)[C@@H]1O)Oc1ccccc1 [Remdesivir, reference compound] , viability at 0.31 µM read as 106
